# Species: Mus musculus
# Test Protocol: Stimulation of alkaline phosphatase activity in mouse calvarial osteoblasts assessed as concentration required for maximum activity after 48 hrs by spectrophotometric analysis
Reported Metric: Concentration giving maximum ALP activity (pM)
Report the value in pM with no unit label.

Look over these answered cases.
| Compound | Reported Result |
| --- | --- |
| CCC(C)c1cc(C2C(C(=O)OC)=C(C)NC(C)=C2C(=O)OC)cc2cc(C(=O)OC)c(=O)oc12 (stereo not given) | 1 |
| CCOC(=O)c1cc2cc(C=O)cc(C(C)CC)c2oc1=O (stereo not given) | 10000 |
| CCC(C)c1cc(C2C(C(=O)OC)=C(C)NC3=C2C(=O)CCC3)cc2cc(C(=O)OC)c(=O)oc12 (racemic) | 10000 |
| CCOC(=O)C1=C(C)NC2=C(C(=O)CCC2)C1c1cc(C(C)(C)C)c2oc(=O)c(C(=O)OCC)cc2c1 (racemic) | 1 |
| CCOC(=O)C1=C(C)NC2=C(C(=O)CC(C)(C)C2)C1c1cc(C(C)(C)C)c2oc(=O)c(C(=O)OCC)cc2c1 (racemic) | 10000 |
| CCOC(=O)c1cc2cc(C3C(C(=O)OC)=C(C)NC(C)=C3C(=O)OC)cc(C(C)CC)c2oc1=O (stereo not given) | 10000 |

Prompt: Item under review: CCOC(=O)C1=C(C)NC(C)=C(C(=O)OCC)C1c1cc(C(C)CC)c2oc(=O)c(C(=O)OCC)cc2c1 (stereo not given) . Reported Concentration giving maximum ALP activity?
Response: 100

Prompt: Item under review: CCOC(=O)c1cc2cc(C3C(C(=O)OC)=C(C)NC4=C3C(=O)CCC4)cc(C(C)(C)C)c2oc1=O (racemic) . Reported Concentration giving maximum ALP activity?
Response: 1

Prompt: Item under review: CCOC(=O)c1cc2cc(C3C(C(=O)OC)=C(C)NC4=C3C(=O)CC(C)(C)C4)cc(C(C)CC)c2oc1=O (racemic) . Reported Concentration giving maximum ALP activity?
Response: 1

----------
# Species: Mus musculus
# Test Protocol: Stimulation of alkaline phosphatase activity in mouse calvarial osteoblasts assessed as concentration required for maximum activity after 48 hrs by spectrophotometric analysis
Reported Metric: Concentration giving maximum ALP activity (pM)
Report the value in pM with no unit label.

| Molecule | Reported Result |
| --- | --- |
| CCOC(=O)c1cc2cc(C3C(C(=O)OC)=C(C)NC(C)=C3C(=O)OC)cc(C(C)(C)C)c2oc1=O | 1 |
| CCOC(=O)C1=C(C)NC2=C(C(=O)CC(C)(C)C2)C1c1cc(C(C)CC)c2oc(=O)c(C(=O)OC)cc2c1 (racemic) | 1 |

Now for a further molecule.
Prompt: Item under review: CCOC(=O)C1=C(C)NC(C)=C(C(=O)OCC)C1c1cc(C(C)CC)c2oc(=O)c(C(=O)OC)cc2c1 (stereo not drawn) . Reported Concentration giving maximum ALP activity?
Response: 100

----------
# Organism: Mus musculus
# Test Protocol: Stimulation of alkaline phosphatase activity in mouse calvarial osteoblasts at 1 pM to 1 uM after 48 hrs by spectrophotometric analysis
The source made the active and inactive calls. The calls are words filed in the database; no cut-off is given here.
Reported Metric: Activity

Look over these answered cases.
| Compound | Activity |
| --- | --- |
| COC(=O)C1=C(C)NC(C)=C(C(=O)OC)C1c1cc(C(C)(C)C)c2oc(=O)c(C(=O)OC)cc2c1 | inactive |
| CCOC(=O)c1cc2cc(C3C(C(=O)OC)=C(C)NC4=C3C(=O)CC(C)(C)C4)cc(C(C)CC)c2oc1=O (racemic) | 39% |
| CCOC(=O)C1=C(C)NC2=C(C(=O)CCC2)C1c1cc(C(C)CC)c2oc(=O)c(C(=O)OC)cc2c1 (stereo not given) | 80% |
| CCOC(=O)C1=C(C)NC2=C(C(=O)CCC2)C1c1cc(C(C)(C)C)c2oc(=O)c(C(=O)OCC)cc2c1 (racemic) | 13% |
| COC(=O)C1=C(C)NC(C)=C(C(=O)OC)C1c1ccccc1[N+](=O)[O-] | 25% |

Prompt: Item under review: CCC(C)c1cc(C2C(C(=O)OC)=C(C)NC(C)=C2C(=O)OC)cc2cc(C(=O)OC)c(=O)oc12 (stereo not given) . Reported Activity?
Response: 30%

Prompt: Item under review: CCOC(=O)C1=C(C)NC2=C(C(=O)CC(C)(C)C2)C1c1cc(C(C)CC)c2oc(=O)c(C(=O)OCC)cc2c1 (racemic) . Reported Activity?
Response: 3%

Prompt: Item under review: "CCOC(=O)c1cc2cc(C=O)cc(C(C)(C)C)c2oc1=O" . Reported Activity?
Response: inactive

Prompt: Item under review: CCOC(=O)C1=C(C)NC2=C(C(=O)CCC2)C1c1cc(C(C)CC)c2oc(=O)c(C(=O)OCC)cc2c1 (racemic) . Reported Activity?
Response: 35%

Prompt: Item under review: "CCOC(=O)C1=C(C)NC(C)=C(C(=O)OCC)C1c1cc(C(C)(C)C)c2oc(=O)c(C(=O)OC)cc2c1" . Reported Activity?
Response: 70%

Prompt: Item under review: CCOC(=O)c1cc2cc(C3C(C(=O)OC)=C(C)NC4=C3C(=O)CCC4)cc(C(C)CC)c2oc1=O (racemic) . Reported Activity?
Response: 12%

Prompt: Item under review: CCC(C)c1cc(C=O)cc2cc(C(=O)OC)c(=O)oc12 (stereo not given) . Reported Activity?
Response: inactive

Prompt: Item under review: CCOC(=O)c1cc2cc(C3C(C(=O)OC)=C(C)NC4=C3C(=O)CC(C)(C)C4)cc(C(C)(C)C)c2oc1=O (racemic) . Reported Activity?
Response: 5%
